In this section, each of the compounds is paired with its reported MIC.
system: Klebsiella pneumoniae; test: Antimicrobial activity against CTX-M-59 producing Klebsiella pneumoniae with PFGE pulsotype C by Etest; type: functional

// worked examples, MIC included
line notation | target of assay | MIC
C[C@H]1[C@H](NC(=O)/C(=N\OC(C)(C)C(=O)O)c2csc(N)n2)C(=O)N1S(=O)(=O)O | Klebsiella pneumoniae | 32 µg/mL
CC(C)(O/N=C(\C(=O)N[C@@H]1C(=O)N2C(C(=O)[O-])=C(C[n+]3ccccc3)CS[C@H]12)c1csc(N)n1)C(=O)O | Klebsiella pneumoniae | 4 µg/mL
CO/N=C(\C(=O)N[C@@H]1C(=O)N2C(C(=O)O)=C(COC(C)=O)CS[C@H]12)c1csc(N)n1 | Klebsiella pneumoniae | > 256 µg/mL
O=C(O)c1cn(C2CC2)c2cc(N3CCNCC3)c(F)cc2c1=O | Klebsiella pneumoniae | 0.032 µg/mL
C[C@@H](O)[C@H]1C(=O)N2C(C(=O)O)=C(S[C@@H]3CN[C@H](C(=O)Nc4cccc(C(=O)O)c4)C3)[C@H](C)[C@H]12 | Klebsiella pneumoniae | 1.5 µg/mL

Proceeding to the next compound to report its MIC.
Please report the recorded MIC for CO/N=C(\C(=O)N[C@@H]1C(=O)N2C(C(=O)[O-])=C(C[N+]3(C)CCCC3)CS[C@H]12)c1csc(N)n1 .
256 µg/mL
